Target: Activated human plasma kallikrein (Enzyme Research Laboratories, HPKa 1303) (human, UniProt P03952 20-638)
Sequence (P03952 20-638 limits assumed): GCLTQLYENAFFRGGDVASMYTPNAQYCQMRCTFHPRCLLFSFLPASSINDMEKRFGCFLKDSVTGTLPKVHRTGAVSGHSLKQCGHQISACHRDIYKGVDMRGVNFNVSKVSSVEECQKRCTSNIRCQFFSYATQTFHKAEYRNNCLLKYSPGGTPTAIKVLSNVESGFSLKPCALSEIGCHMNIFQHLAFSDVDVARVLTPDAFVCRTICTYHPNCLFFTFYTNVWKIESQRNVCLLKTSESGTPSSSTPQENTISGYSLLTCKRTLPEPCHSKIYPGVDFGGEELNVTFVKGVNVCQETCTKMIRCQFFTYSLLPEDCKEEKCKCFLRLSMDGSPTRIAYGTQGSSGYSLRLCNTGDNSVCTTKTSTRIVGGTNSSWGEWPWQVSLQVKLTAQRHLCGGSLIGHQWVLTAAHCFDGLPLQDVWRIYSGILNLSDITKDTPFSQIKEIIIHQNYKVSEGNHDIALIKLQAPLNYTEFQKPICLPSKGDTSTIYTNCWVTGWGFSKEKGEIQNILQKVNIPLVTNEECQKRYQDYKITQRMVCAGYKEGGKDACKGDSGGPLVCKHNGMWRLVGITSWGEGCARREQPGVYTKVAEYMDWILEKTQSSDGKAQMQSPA
Test: cell-based or functional assay
Numbered stars: 1 amine (or outer) side, 2 acyl side, 3 side chain; on linkers, the order of the positions; unused ones are H or OH. Bridge positions count the residues as written; N and C are the ends. Square brackets hold non-standard residues; d marks the D form. mXylyl = xylyl linker from dibromoxylene joining the two cysteines; pXylylene = c1cc(C[*:2])ccc1C[*:1]; Chg = N[C@H](C(=O)O)C1CCCCC1; Aib = CC(C)(N)C(=O)O; Mpa = O=C(O)CCS
Quantity Kind: Avg. IC50 (nM)
Enter your answer as a number in nM; do not include the unit.

What the record says about [Mpa][Aib]A[Chg]CR-{2‑amino‑3,3‑dimethylbutan‑1‑ol} (linker 1-5 via mXylyl) [R2162] : Avg. IC50 is 466

Noted for [Mpa]SICRV-NH2 (linker 1-4 via pXylylene; SMILES CC[C@H](C)[C@@H]1NC(=O)[C@H](CO)NC(=O)CCSCc2ccc(cc2)CSC[C@@H](C(=O)N[C@@H](CCCNC(=N)N)C(=O)N[C@H](C(N)=O)C(C)C)NC1=O) [R2156] : its Avg. IC50 reads 1530

Attribution: patent US20150166606A1
